molecular target: CD28 (human) (UniProt P10747); assay: flow cytometry, Jurkat cells (CD28)
observation_type: Fold change to WT

CD80 IgV-Fc E35D/M47L/V68M/A71G/L85Q/D90G (Fc fusion) VIHVTKEVKEVATLSCGHNVSVEELAQTRIYWQKDKKMVLTMMSGDLNIWPEYKNRTIFDITNNLSIMILGLRPSDEGTYECVVQKYEKGAFKREHLAEVTLSVKAD
33.9 fold

Hello, I would appreciate it if you could give Fold change to WT for each entry below.
1. CD80 IgV-Fc S15T/H18Y/E35D/M47V/T62A/N64S/A71G/L85Q/D90N (Fc fusion) VIHVTKEVKEVATLTCGYNVSVEELAQTRIYWQKDKKMVLTMMSGDVNIWPEYKNRTIFDIANSLSIVILGLRPSDEGTYECVVQKYEKNAFKREHLAEVTLSVKAD
2. CD80 IgV-Fc H18Y/V22A/E35D/T41S/M47V/T62N/A71G/A91G (Fc fusion) VIHVTKEVKEVATLSCGYNVSAEELAQTRIYWQKDKKMVLSMMSGDVNIWPEYKNRTIFDINNNLSIVILGLRPSDEGTYECVVLKYEKDGFKREHLAEVTLSVKAD
3. CD80 IgV-Fc E35D/D46E/M47L/V68M/L85Q/F92L (Fc fusion) VIHVTKEVKEVATLSCGHNVSVEELAQTRIYWQKDKKMVLTMMSGELNIWPEYKNRTIFDITNNLSIMILALRPSDEGTYECVVQKYEKDALKREHLAEVTLSVKAD

Found:
["25.9 fold", "38.5 fold", "0.4 fold"]
